- assayProtocol: reduction of polyQ htt aggregates in cells – imaging, exon1htt(103Q)mCFP cells, high-content imaging, primary screen (AID 483);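 further: compound exposure lasted 3 days before fixation; percent of the per-plate median nuclei count of sample wells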
- particulars: exon1htt(103Q)mCFP cell line, aggregate imaging, at 2 µM; measured here: cell count, toxicity
property: nuclei count (%)
State just the number; it will be interpreted in %.

# nuclei count of Cc1ccc2oc(=O)c3cnn(CC(=O)N4CCCCC4C)c3c2c1 (stereo unspecified) = 77.1

# nuclei count of `CCOC(=O)c1c(C)n(C)c2c(C)cc(O)c(OC(C)=O)c12` = 96.7

# nuclei count of `CCOC(=O)c1[nH]c2ccc(C)cc2c1NC(=O)CN1CCCCC1` = 93.3

# nuclei count of `CCN1CCN(S(=O)(=O)c2ccc(S(=O)(=O)N(CC)Cc3ccccc3)cc2)CC1` = 104

# nuclei count of `CC(C)N(Cc1nc(-c2ccccc2)no1)C(=O)CCCN1C(=O)c2ccccc2C1=O` = 112

# nuclei count of CC(=O)Nc1nc2c(c3c1c(=O)oc1ccccc13)CC(C)CC2 (stereo unspecified) = 61.9

# nuclei count of `Cc1cc(NC(=O)CSc2nc(C3CCCCC3)nc3ccccc23)no1` = 110

# nuclei count of `CCc1cc2ccc(C)cc2nc1SCC(=O)N1CCN(C(=O)c2ccco2)CC1` = 106

# nuclei count of `Cc1cc(Nc2ccccc2F)n2ncnc2n1` = 137

# nuclei count of `Cn1c(SCC(=O)Nc2ccc(F)cc2)nnc1-c1cccnc1` = 90.3

# nuclei count of `CCOC(=O)c1sc(NC(=O)c2c(C)nn(Cc3ccccc3)c2C)cc1C` = 60

* * *

- targetOrTestSystem: Voltage-gated potassium channel subunit beta-2 (Rattus norvegicus) (UniProt P62483)
- Sequence (P62483 whole entry, looked up): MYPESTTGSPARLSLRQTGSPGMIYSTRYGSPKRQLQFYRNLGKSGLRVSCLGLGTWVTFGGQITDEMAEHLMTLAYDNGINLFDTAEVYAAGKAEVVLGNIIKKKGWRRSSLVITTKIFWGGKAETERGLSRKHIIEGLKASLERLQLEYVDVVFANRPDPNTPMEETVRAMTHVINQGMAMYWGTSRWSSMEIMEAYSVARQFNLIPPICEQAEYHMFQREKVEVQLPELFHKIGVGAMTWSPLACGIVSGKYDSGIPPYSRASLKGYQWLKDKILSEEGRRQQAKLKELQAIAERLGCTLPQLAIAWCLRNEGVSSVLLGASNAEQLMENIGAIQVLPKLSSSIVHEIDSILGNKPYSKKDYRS
- assayProtocol: enhancers of rat Kvbeta2 NADPH turnover – biochemical, NADPH fluorescence, primary screen (AID 623);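 further: fluorescence intensity change per second fitted from 20 to 320 s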
- particulars: Recombinant KvBeta, NADPH fluorescence decrease slope, 10 min; at 10 µM; stronger effect = lower value
Provide the reported NADPH fluorescence slope of each item.
Reply with the value as a number alone.

# NADPH fluorescence slope of Cn1c(SCc2ccccc2)nnc1C1CCCNC1 (stereo not given) = 1.3e-05

# NADPH fluorescence slope of `N#Cc1c(NC(=O)CSc2nnnn2C2CCCC2)sc2c1CCCC2` = 2.8e-05

# NADPH fluorescence slope of `CNC(=O)CSc1nnc(-c2cccc(S(=O)(=O)N3CCOCC3)c2)n1-c1ccc(F)cc1` = -6.4e-05

# NADPH fluorescence slope of CCn1cc(C(=O)NCC2CCCO2)c(=O)c2cc(S(=O)(=O)N(C)C)ccc21 (stereo not given) = -8.2e-05

# NADPH fluorescence slope of `Cc1cc(C(=O)Nc2c(F)cc(F)cc2Br)no1` = 1.4e-05

# NADPH fluorescence slope of `Oc1ccc(C=Nc2cccc3ncccc23)c(O)c1` = -2.5e-05

# NADPH fluorescence slope of `COCCN1C=C(C(=O)OC)C(c2cc3c(cc2Br)OCO3)C(C(=O)OC)=C1` = -6e-05

# NADPH fluorescence slope of O=C(CN1C(=O)CC(c2ccco2)Sc2ccccc21)Nc1ccc2c(c1)OCCO2 (stereo not given) = -1.9e-05

# NADPH fluorescence slope of COc1cc(C2=NOC(C(=O)NCc3ccc(F)cc3)C2)cc(OC)c1OC (stereo not given) = 4.9e-05

# NADPH fluorescence slope of `Nc1nnc(-c2cn(-c3ccccc3)nc2-c2ccccc2)o1` = 1.3e-05

# NADPH fluorescence slope of CCC1C(=O)n2nc(-c3ccccc3)cc2N=C1C (stereo not given) = -4.6e-05

# NADPH fluorescence slope of CC1CCN(CC(O)COC2CCC(C(C)(C)C)CC2)CC1 (stereo not given) = -0.000251

# NADPH fluorescence slope of `Cc1ccc(-c2cc(C(=O)Nc3cc(C)ccc3C)[nH]n2)c(O)c1` = 2.9e-05

# NADPH fluorescence slope of Cc1ccc(OCC(O)Cn2c(=N)n(CCN3CCCCC3)c3ccccc32)cc1 (stereo not given) = -4.1e-05

# NADPH fluorescence slope of `COc1cc(-c2nc(S(=O)(=O)c3ccccc3)c(N3CCOCC3)o2)cc(OC)c1OC` = -0.000303

# NADPH fluorescence slope of Cc1nccn1CCCN1C(=O)OC2(CCCCC2)C1(C)O (stereo not given) = -3.8e-05

# NADPH fluorescence slope of COc1cccc(CN2C(=O)C3(C(C#N)=C(N)OC4=C3C(=O)CCC4)c3ccccc32)c1 (stereo not given) = -5.5e-05

# NADPH fluorescence slope of COc1cc2c(cc1OC)C(c1ccccc1O)N(C1CC(=O)N(c3ccccc3)C1=O)CC2 (stereo not given) = -8.8e-05

# NADPH fluorescence slope of `Cc1cc(C)n2nc(SCC(=O)N(C)Cc3ccccc3)nc2n1` = -6.2e-06

# NADPH fluorescence slope of `CCC(=O)N1CCc2cc(Br)cc(S(=O)(=O)N3CCCCCC3)c21` = -5.4e-06

# NADPH fluorescence slope of COc1cccc(NC(=O)N2CCCC2C(=O)Nc2ccc3c(c2)OCO3)c1 (stereo not given) = -6.1e-05

# NADPH fluorescence slope of `CCOC(=O)c1[nH]c(C)c(C(=O)N(C)C)c1C` = -1.4e-05

# NADPH fluorescence slope of CS(=O)(=O)N1CCCC(C(=O)NCCCN2CCc3ccccc3C2)C1 (stereo not given) = -1.5e-05

# NADPH fluorescence slope of `S=c1[nH]c2ccc(Cl)cc2[nH]1` = -3.7e-05

# NADPH fluorescence slope of `CCCCNC(=O)CN(C1CCCCC1)S(C)(=O)=O` = 1.8e-07

# NADPH fluorescence slope of `Cc1cc2ncn(S(=O)(=O)c3ccc(S(=O)(=O)N4CCOCC4)cc3)c2cc1C` = 1.7e-05

# NADPH fluorescence slope of `Cc1onc(-c2ccccc2Cl)c1C(=O)Nc1cccc(-c2cn3cccnc3n2)c1` = -9.5e-06

# NADPH fluorescence slope of CCOC(=O)c1c(C)c(C(=O)NCC2CCCO2)c(C)n1C (stereo not given) = -6e-06

# NADPH fluorescence slope of `CCCn1c(SCC(=O)NC(C)(C)C)nnc1C(C)C` = -0.000121

# NADPH fluorescence slope of `COC(=O)c1ccccc1NC(=O)CN1CCC(n2nnc3cc(F)ccc32)CC1` = -4.1e-05

# NADPH fluorescence slope of Cc1nc2ccc(C(=O)O)cc2c2c1CC(C)S2 (stereo not given) = -4.3e-05

# NADPH fluorescence slope of `COc1ccc(C)cc1C(=O)CCC(=O)Nc1ccccc1N1CCOCC1` = -5.1e-05

# NADPH fluorescence slope of `Cc1cccc(NC(=O)CC2CCC2)c1` = -2.3e-05

# NADPH fluorescence slope of O=C1CSC(c2cn(-c3ccccc3)nc2-c2ccccc2)N1Cc1ccco1 (stereo not given) = -2.8e-05

# NADPH fluorescence slope of `Cc1ccc(-c2nc(N)n(C(=O)c3cccnc3)n2)cc1` = -5.3e-06

# NADPH fluorescence slope of CCOCCCNC(=O)C(c1ccccc1)N(Cc1ccc2c(c1)OCO2)C(=O)CNC(C)=O (stereo not given) = -2.1e-05

# NADPH fluorescence slope of `CCCCSc1nc(CCC)cc(=O)[nH]1` = 5.5e-06

# NADPH fluorescence slope of `COc1ccc(C(=O)Nc2ccc(S(=O)(=O)Nc3nccnc3OC)cc2)cc1OC` = 6.9e-06

# NADPH fluorescence slope of `O=C(c1ccc(S(=O)(=O)N2CCOCC2)cc1)N1CCc2ccccc2C1` = -1.3e-05

# NADPH fluorescence slope of `Cc1ccc(-n2ncc3c(=O)n(CC(=O)NC4CCCCC4)cnc32)cc1C` = 2.2e-05

# NADPH fluorescence slope of `CC(C)N(C=O)C1(C(=O)NC2CCCCC2)CCCCC1` = -4.6e-06

# NADPH fluorescence slope of `CCOC(=O)c1ccccc1NC(=O)c1c(O)c2ccccc2n(CC)c1=O` = -0.000195

# NADPH fluorescence slope of `Nc1nonc1-n1nnc(C(=O)c2ccccc2)c1-c1ccccc1` = 7.3e-06

# NADPH fluorescence slope of `CC(=O)Nc1ccc(NC(=O)c2ccccc2N(C)S(C)(=O)=O)cc1` = -5.4e-05

# NADPH fluorescence slope of CCOc1ccccc1C1CC(=O)Nc2cc3c(cc21)OCO3 (stereo not given) = -4.6e-05
